System: Voltage-gated inwardly rectifying potassium channel KCNH2 (Homo sapiens)
Assay: qHTS Assay for Small Molecule Inhibitors of the Human hERG Channel Activity (AID 588834);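 note: lower thallium flux fluorescence means stronger hERG block; nearly all actives have a fitted effect of over 50% in size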
Experimental Setup: U2OS BacMam hERG, FluxOR thallium flux fluorescence; series mostly up to 92.2 µM
Inconclusive results are not listed. Activity calls are given as the source filed them. Calls come from the whole dose curve; as a rule, active = well fitted inhibition curve with a large enough effect; inconclusive = small, poorly fitted or top-dose-only effect; inactive = flat fitted curve, though single readings scatter.
Outcome codes: active, inactive

{"columns": ["Compound", "Category"],
 "data": [
  ["CN1C[C@@H](CS(=O)(=O)N(C)C)C[C@@H]2c3cccc4c3c(cn4C)C[C@H]21", "inactive"],
  ["CCCCN1C2CCC1CC(OC(c1ccc(F)cc1)c1ccc(F)cc1)C2 (centres undefined)", "active"],
  ["CCOCN(C(=O)CCl)c1c(C)cccc1CC", "inactive"],
  ["N#CC(=Cc1ccc(O)c(O)c1)C(N)=S", "inactive"],
  ["Clc1cc(Cl)c(-c2cc(Cl)c(Cl)cc2Cl)cc1Cl", "inactive"],
  ["c1ccc(N=Nc2ccccc2)cc1", "inactive"],
  ["C=CC(=O)OCC", "inactive"],
  ["O=C(Cl)/C=C/C(=O)Cl", "inactive"],
  ["Nc1ncnc2c1ncn2[C@@H]1O[C@H](COP(=O)(O)CP(=O)(O)OP(=O)(O)O)[C@H](O)[C@H]1O", "inactive"],
  ["Clc1nc(Cl)nc(Cl)n1", "inactive"],
  ["CCCSC(=O)Cl", "inactive"],
  ["c1nc[nH]n1", "inactive"],
  ["CC(C)(C)OO", "inactive"],
  ["c1ccc(OP(Oc2ccccc2)Oc2ccccc2)cc1", "inactive"]
]}

====

Assay: Primary qHTS to identify inhibitors of SARS-CoV-2 cell entry (AID 1645846); note: nearly all actives have a fitted effect of over 45% in size
Experimental Setup: SARS-CoV-2 pseudovirus cell entry assay, luminescence; at 57.1 µM (top of the series) unless noted
Records with an inconclusive call do not appear.
Lab note: compare activity change, negative = inhibition against -30%. Equal or greater, write 1. Smaller, write 0.

{"columns": ["Molecule", "Category"],
 "data": [
  ["CCCCC(=O)O[C@]1(C(=O)COC(C)=O)CC[C@H]2[C@@H]3CCC4=CC(=O)C=C[C@]4(C)[C@H]3[C@@H](O)C[C@@]21C", 1],
  ["CCCCCCCCCCCCCCCC(=O)OCC=C(C)C=CC=C(C)C=CC1=C(C)CCCC1(C)C", 1],
  ["CCC(C(=O)NC(N)=O)c1ccccc1 (stereo not drawn)", 1],
  ["O=C(O)c1ccccc1C(c1ccc(O)cc1)c1ccc(O)cc1", 1],
  ["CO[C@@H]1[C@@H](O[C@@H]2O[C@H](C)[C@@H](O[C@H]3C[C@@](C)(O)[C@H](O)[C@H](C)O3)[C@H](N(C)C)[C@H]2O)[C@@H](CC=O)C[C@@H](C)[C@@H](O[C@H]2CC[C@H](N(C)C)[C@@H](C)O2)/C=C/C=C/C[C@H](C)OC(=O)C[C@H]1O", 0],
  ["CCc1cc2c(c(OCC(F)(F)F)c(C(=O)NC3CCN(C(=O)CO)CC3)n2C)c(=O)n1CC(=O)c1ccccc1", 0],
  ["Cc1sc2c(c1C)C(c1ccc(Cl)cc1)=NC(CC(N)=O)c1nnc(C)n1-2 (stereo not drawn)", 1]
]}

====

Some compounds, each annotated with its measured Potency.
System: Glucocorticoid receptor (Homo sapiens)
Assay: GR-EFC Redistribution (AID 451); note: potency is the fitted concentration of half-maximal effect
Experimental Setup: CHO-K1 GR-EFC translocation, beta-gal luminescence, 2 h
Active and inactive are the calls of the source. Calls come from the whole dose curve.

{"columns": ["Structure", "Potency"],
 "data": [
  ["c1ccc(N2CCCC3(CCNCC3)C2)cc1", "> 46 µM (inactive)"],
  ["c1cnc(N2CC[C@@]3(CCCNC3)C2)nc1", "> 46 µM (inactive)"],
  ["C[C@H]1CC[C@@]2(NC1)O[C@@H]1C[C@H]3[C@@H]4CC=C5C[C@@H](O)CC[C@]5(C)[C@@H]4CC[C@]3(C)[C@@H]1[C@@H]2C", "> 20.6 µM (inactive)"],
  ["CN1CC[C@@]2(CCCN(C(=O)Oc3ccccc3)C2)C1", "> 46 µM (inactive)"],
  ["c1ccc(CN2CCCC3(CCNCC3)C2)cc1", "> 46 µM (inactive)"],
  ["Cc1nc2cnc(N3CCNCC3)nc2n(C)c1=O", "> 46 µM (inactive)"],
  ["N#Cc1cccc(NC(=O)N2CC[C@@]3(CCCN(C(=O)Oc4ccccc4)C3)C2)c1", "> 46 µM (inactive)"],
  ["c1csc(CN2CCC3(CCNCC3)CC2)n1", "> 46 µM (inactive)"],
  ["CCNC[C@H](O)c1cccc(O)c1", "> 20.6 µM (inactive)"],
  ["CC1=C2[C@@H]3OC(=O)[C@@H](C)[C@@H]3CC[C@]2(C)C=CC1=O", "> 20.6 µM (inactive)"],
  ["Cc1nnc2ccc(-c3cccc(C(F)(F)F)c3)nn12", "> 46 µM (inactive)"],
  ["O=C(Oc1ccccc1)N1CCC2(CCCN(Cc3nccs3)C2)CC1", "> 46 µM (inactive)"],
  ["COC(=O)N1CCC2(CCN(CC(C)C)CC2)CC1", "> 46 µM (inactive)"],
  ["C[C@H]1CC[C@@H]2[C@@H](C)C(=O)O[C@H]3O[C@@]4(C)CC[C@H]1[C@@]32OO4", "> 20.6 µM (inactive)"],
  ["C[C@@]12CC[C@H](O)C[C@@H]1CC[C@H]1[C@H]2CC[C@@]2(C)[C@@H](C3=CC(=O)OC3)CC[C@]12O", "> 20.6 µM (inactive)"],
  ["CC(C)c1ccc(C(c2c(O)c3ccccc3oc2=O)c2c(O)c3ccccc3oc2=O)cc1", "> 9.22 µM (inactive)"],
  ["O=C(c1ccco1)N1CCC2(CC1)CN(Cc1ccncc1)C2", "> 46 µM (inactive)"],
  ["COc1cc(N)c(Cl)cc1C(=O)N[C@@H]1CN2CCC1CC2", "> 46 µM (inactive)"],
  ["CC(=O)O[C@H]1CC[C@@]2(C)C(=CC[C@@H]3[C@H]2CC[C@]2(C)C(=O)CC[C@H]32)C1", "> 20.6 µM (inactive)"],
  ["c1cnc(N2CCCC3(CCNCC3)C2)nc1", "> 46 µM (inactive)"],
  ["COC1=C[C@H]2C3=C([C@H]2C1=O)[C@H](NC(C)=O)CCc1cc(OC)c(OC)c(OC)c13", "> 20.6 µM (inactive)"],
  ["COc1ccc(NC(=O)N2CCCC3(CCN(C(=O)Oc4ccccc4)CC3)C2)cc1", "> 46 µM (inactive)"]
]}

Reference for the values: PubChem BioAssay (NCATS)
